Tested on: T1, GFP-9S library array, motif 4 ND N98A;D124N (synthetic construct, N98A;D124N)
T1 chain: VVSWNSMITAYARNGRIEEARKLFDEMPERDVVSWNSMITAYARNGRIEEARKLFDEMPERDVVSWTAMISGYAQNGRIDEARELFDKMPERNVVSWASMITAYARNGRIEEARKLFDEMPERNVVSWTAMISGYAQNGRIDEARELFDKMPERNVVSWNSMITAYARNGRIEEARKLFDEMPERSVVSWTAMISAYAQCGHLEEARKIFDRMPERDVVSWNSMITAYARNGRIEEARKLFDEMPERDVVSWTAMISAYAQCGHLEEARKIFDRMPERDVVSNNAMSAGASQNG
Assay remarks: high-throughput RNA pulldown from lysate on Ni-NTA beads; HRP: 50 mM Tris pH 8, 150 mM NaCl, 1 mM beta-mercaptoethanol, 50 ug/ml BSA, 3 ug/ml yeast RNA, 0.5% heparin; ITC and FP: Tris pH 8, 200 mM KCl, 5% glycerol; MST: 50 mM Tris pH 8, 200 mM NaCl, 1 mM DTT, BSA, heparin, 0.05% Tween 20
Condition context: tags: N-terminal His-eGFP; label: 5' IRDye 800CW
Would you kindly list Kd for each of these binders?
Numbers only, in nM.

Binder | Units label | Kd
AUUAUACGUGA (ssRNA) [IR-rpoA-U] | nM | 44

Prompt: Recorded Kd for AUUAAACGUGA (ssRNA) [IR-rpoA-A] , please?
Response: 137

Origin of the recorded values: paper PMC8809517
